Taken from paper PMC6130714.

- Test system: α-Glucosidase
- Measurement description: α-Glucosidase inhibitory activity (p-NPG substrate, 96-well plate)
- Type: biochemical
- Condition: concentration 5000 µg/mL; mean of three replicates
Reported endpoint: α-Glucosidase inhibition (%)

>  <Molecule>
C[C@H]1O[C@H](O[C@H]2[C@H](O)[C@@H](O)[C@@H](O[C@H]3[C@H](O)[C@@H](O)C(O)O[C@@H]3CO)O[C@@H]2CO)[C@H](O)[C@@H](O)[C@@H]1N[C@H]1C=C(CO)[C@@H](O)[C@H](O)[C@H]1O (stereo partly drawn) [Acarbose, acarbose, reference compound]

>  <Reported endpoint>
α-Glucosidase inhibition (%)

>  <Value measured>
50.81

$$$$
>  <Molecule>
COc1c2occc2cc2ccc(=O)oc12

>  <Reported endpoint>
α-Glucosidase inhibition (%)

>  <Value measured>
45.76

$$$$
>  <Molecule>
O=c1ccc2ccc(O)cc2o1

>  <Reported endpoint>
α-Glucosidase inhibition (%)

>  <Value measured>
10.27

$$$$

---

- System: α-Glucosidase
- Measurement description: α-Glucosidase inhibitory activity (p-NPG substrate, 96-well plate)
- Format: biochemical
- Condition: concentration 2000 µg/mL; mean of three replicates
Parameter α-Glucosidase inhibition (%): see the listing below.

>  <Compound smiles>
COc1c2ccoc2cc2oc(=O)ccc12

>  <α-Glucosidase inhibition (%)>
39.71

$$$$
>  <Compound smiles>
COc1c2occc2cc2ccc(=O)oc12

>  <α-Glucosidase inhibition (%)>
37.95

$$$$
>  <Compound smiles>
COc1ccc2ccc(=O)oc2c1CC=C(C)C

>  <α-Glucosidase inhibition (%)>
84.31

$$$$
>  <Compound smiles>
O=c1ccc2ccc(O)cc2o1

>  <α-Glucosidase inhibition (%)>
8.84

$$$$
